For each of the compounds below, state its IC50.
EXPERIMENTAL_TARGET: HIV-1 protease (Human immunodeficiency virus type 1 group M subtype B, UniProt P04585)
Construct: Purified HIV-1 protease was obtained as described below; made in house; host or cells: E. coli K12 L507/pHP10D (NRRL B-18560)
TEST_PROTOCOL: biochemical
TEST_CONTEXT: read-out: Fluorescence Assay IC50 (converted)
Give bare numbers, in nM.

Worked cases, IC50 given:
- CC(C)(C)NC(=O)c1ccccc1C[C@@H](O)[C@H](Cc1ccccc1)NC(=O)[C@H](CC(=O)NCc1nc2ccccc2[nH]1)NC(=O)c1ccc2ccccc2n1: 0.676
- CCC(C)[C@H](NC(=O)N(C)Cc1ccc2ccccc2n1)C(=O)N[C@@H](Cc1ccccc1)[C@H](O)Cc1ccccc1C(=O)NC(C)(C)C (stereo partly drawn): 5.06
- Cc1ccc(C(=O)NC(C)(C)C)c(C[C@@H](O)[C@H](Cc2ccccc2)NC(=O)[C@H](CC(N)=O)NC(=O)c2ccc3ccccc3n2)c1: 1.92
- CC(C)(C)NC(=O)c1ccccc1C[C@@H](O)[C@H](Cc1ccccc1)NC(=O)[C@H](CC(=O)O)NC(=O)c1ccc2ccccc2n1: 2.13
- CC(C)(C)NC(=O)c1ccccc1C[C@@H](O)[C@H](Cc1ccccc1)NC(=O)[C@H](CC(N)=O)NC(=O)NCc1ccccc1: 16.5

Each compound below has a reported value. Please supply its IC50.
1. CC(C)(C)C(=O)Nc1ccccc1C[C@@H](O)[C@H](Cc1ccccc1)NC(=O)[C@H](CC(N)=O)NC(=O)c1ccc2ccccc2n1
2. CC(C)(C)NC(=O)c1ccccc1C[C@@H](O)[C@H](Cc1ccc(O)cc1)NC(=O)[C@H](CC(N)=O)NC(=O)c1ccc2ccccc2n1
3. CC(C)(C)NC(=O)c1ccccc1C[C@@H](O)[C@H](Cc1ccccc1)NC(=O)[C@H](CC(N)=O)NC(=O)c1nc2ccccc2[nH]1
4. CC(C)(C)NC(=O)c1ccccc1C[C@@H](O)[C@H](Cc1ccccc1)NC(=O)[C@H](CC(N)=O)NC(=O)c1cnc2ccccc2n1
5. CC(C)(C)NC(=O)c1ccccc1C[C@@H](O)[C@H](Cc1ccccc1)NC(=O)[C@H](CC(N)=O)NC(=O)c1ccc2cccc(F)c2n1
6. CC(C)(C)NC(=O)c1ccccc1C[C@@H](O)[C@H](Cc1ccccc1)NC(=O)[C@H](CCC(=O)O)NC(=O)c1ccc2ccccc2n1
7. CCC(C)[C@H](NC(=O)OCc1ccc2ccccc2n1)C(=O)N[C@@H](Cc1ccccc1)[C@H](O)Cc1ccccc1C(=O)NC(C)(C)C (stereo partly drawn)
8. CC(C)(C)NC(=O)c1ccccc1C[C@@H](O)[C@H](Cc1ccccc1)NC(=O)[C@H](CC(=O)NCc1ccccn1)NC(=O)c1ccc2ccccc2n1

1: 50.8; 2: 94.3; 3: 142; 4: 1.15; 5: 4.62; 6: 2.08; 7: 1.21; 8: 1.26

Each compound below has a reported value. Please supply its IC50.
1. CC(C)(C)NC(=O)c1c(C[C@@H](O)[C@H](Cc2ccccc2)NC(=O)[C@H](CC(N)=O)NC(=O)c2ccc3ccccc3n2)ccc2ccccc12
2. CC(C)(C)NC(=O)c1ccccc1C[C@@H](O)[C@H](Cc1ccccc1)NC(=O)[C@H](CC(N)=O)NC(=O)c1ccc2ccccc2c1
3. Cc1cc2ccccc2nc1C(=O)N[C@@H](CC(N)=O)C(=O)N[C@@H](Cc1ccccc1)[C@H](O)Cc1ccccc1C(=O)NC(C)(C)C
4. CC(C)(C)NC(=O)c1ccccc1C[C@@H](O)[C@H](Cc1ccccc1)NC(=O)[C@H](CC(N)=O)NC(=O)c1ccc2ccccc2[n+]1[O-]
5. CC(C)(C)NC(=O)c1ccccc1C[C@@H](O)[C@H](Cc1ccccc1)NC(=O)[C@H](CC(=O)NCc1c[nH]c2ccccc12)NC(=O)c1ccc2ccccc2n1

[4.4, 3.45, 8.18, 28.8, 0.785]
